- TESTED_ON: Human ATX protein (Homo sapiens)
- Construct: made in house
- PROCEDURE_DETAILS: ATX biochemical assay (FRET, FS-3 substrate)
- TEST_CONTEXT: FRET assay, FS-3 2 μM, ATX 1.0 μg/mL, 30 minutes preincubation, 2 hours reaction at room temperature; read-out: IC50
pIC50: −log10 of the molar value. Counter-ions that a name gives are not always drawn.
This section presents compounds with their documented pIC50 values.

Need pIC50, item CCOC(=O)[C@H]1CC[C@H](CC(=O)N2CCc3c(C(F)(F)F)nn(CC4CCC(C)CC4)c3C2)CC1 (stereo partly drawn) [Example 1-48]
≥ 7.00

Need pIC50, item O=C(O)C1CCC(CC(=O)N2CCc3c(C(F)(F)F)nn(Cc4ccccc4F)c3C2)CC1 (mixture of isomers) [Example 6-3]
≥ 7.00

Need pIC50, item CC(C)N1CCC(CC(=O)N2CCc3c(C(F)(F)F)nn(Cc4ccc(F)cc4)c3C2)C1 (stereo not drawn) [Example 10-6]
≥ 7.00

Need pIC50, item O=C(C[C@H]1CC[C@H](C(=O)O)CC1)N1CCc2c(C(F)(F)F)nn(Cc3ccccc3)c2C1 [Example 7-11]
≥ 7.00

Need pIC50, item O=C(CC12CCC(C(=O)O)(CC1)CC2)N1CCc2c(C(F)(F)F)nn(Cc3ccc(F)cc3)c2C1 [Example 5-13]
≥ 7.00

Need pIC50, item O=C(C[C@H]1CC[C@H](C(=O)O)CC1)N1CCc2c(C(F)(F)F)nn(Cc3ccc(F)c(F)c3)c2C1 [Example 5-31]
≥ 7.00

Need pIC50, item O=C(O)CC1CCN(CC(=O)N2CCc3c(C(F)(F)F)nn(Cc4ccc(F)cc4)c3C2)CC1 [Example 13-15, TFA salt]
≥ 7.00

Need pIC50, item O=C(CC1CC(N2CCCCC2)C1)N1CCc2c(C(F)(F)F)nn(Cc3ccc(F)cc3)c2C1 (stereo not drawn) [Example 22-4, TFA salt]
≥ 7.00

***
Need pIC50, item O=C(C[C@H]1CC[C@H](C(=O)O)CC1)N1CCc2c(C(F)(F)F)nn(Cc3ccc(F)cc3F)c2C1 [Example 5-30]
≥ 7.00

Need pIC50, item O=C(O)[C@H]1CC[C@H](C(=O)N2CCc3c(C(F)(F)F)nn(Cc4ccc(F)cc4)c3C2)CC1 [Example 7-17]
≥ 7.00

Need pIC50, item NC(=O)[C@H]1CC[C@@H](CC(=O)N2CCc3c(C(F)(F)F)nn(Cc4ccc(F)cc4)c3C2)CC1 [Example 20-1]
≥ 7.00

====

- TESTED_ON: Human ATX protein (Homo sapiens)
- Construct: made in house
- PROCEDURE_DETAILS: ATX biochemical assay (FRET, FS-3 substrate)
- TEST_CONTEXT: FRET assay, FS-3 2 μM, ATX 1.0 μg/mL, 30 minutes preincubation, 2 hours reaction at room temperature; read-out: IC50
Counter-ions that a name gives are not always drawn.
RESULT_TYPE: IC50

// worked examples, IC50 included
Which measured IC50 belongs to O=C(CC1CCCNC1)N1CCc2c(C(F)(F)F)nn(Cc3ccc(F)cc3)c2C1 (stereo not shown) [Example 9-4, HCl salt] , tested on Human ATX protein (Homo sapiens)?
≤ 100 nM

Which measured IC50 belongs to O=C(C[C@H]1CC[C@H](C(=O)O)CC1)N1CCc2c(C(F)(F)F)nn(CCC3CCCCC3)c2C1 [Example 7-22] , tested on Human ATX protein (Homo sapiens)?
≤ 100 nM

Which measured IC50 belongs to O=C(O)C1CCC(CC(=O)N2CCc3c(C(F)(F)F)nn(Cc4ccc(Cl)cc4F)c3C2)C1 (mixture of isomers) [Example 6-6] , tested on Human ATX protein (Homo sapiens)?
≤ 100 nM

Which measured IC50 belongs to CCC1CC(CC(=O)N2CCc3c(C(F)(F)F)nn(Cc4ccc(F)cc4)c3C2)CCN1C(=O)OC(C)(C)C (stereo not shown) [Example 8-8] , tested on Human ATX protein (Homo sapiens)?
≤ 100 nM

***
Which measured IC50 belongs to O=C(C[C@H]1CC[C@@H](C(=O)O)CC1)N1CCc2c(C(F)(F)F)nn(Cc3ccc(Cl)s3)c2C1 [Example 5-25] , tested on Human ATX protein (Homo sapiens)?
≤ 100 nM

Which measured IC50 belongs to O=C(O)C1CCCN(CC(=O)N2CCc3c(C(F)(F)F)nn(Cc4ccc(Cl)cc4F)c3C2)CC1 (stereo not shown) [Example 13-20, TFA salt] , tested on Human ATX protein (Homo sapiens)?
≤ 100 nM

Which measured IC50 belongs to O=C(O)C1CCN(CC(=O)N2CCc3c(C(F)(F)F)nn(Cc4ccc(F)cc4)c3C2)C1 (stereo not shown) [Example 13-12] , tested on Human ATX protein (Homo sapiens)?
≤ 100 nM
